- System Name: DN-IV quality control recombinant protein (produced by the company) (dengue virus)
- Experimental Details: BLI, antibody on AMC sensor
Quantity Kind: pKd
# pKd = -log10(concentration in molar units)

Reported pKd, binder Mutation 1-50 (antibody, V domains shown) VH: EVQLQQPGPELVKPGASVKMSCKASGYTFTSYVIHWVRQKPGQGLEWIGYMNPYNDGLKYNEKFIGKAILTSDKSSSTAYMQLSSLTSEDSAVYYCTKEGLFYVFDYWGQGTSVTVSS VL: QIVLTQSPAIMSASPGEKVTMTCSATSSISYMHWYQQKSGTSPKRWIYDTSKLASGVPVRFSGSGSGTSYSLTISSMEAEDAATYFCQYWRSDLPTFGAGTKLELKR : ____
8.42

Request: Mutation 1-32 (antibody, V domains shown) VH: EVQLQQPGPELVKPGASVKMSCKASGYTFTSYVIHWVRQKPGQGLEWIGYMNPYNDGIKYNEKFIGKAILTSDKSSSTAYMQLSSLTSEDSAVYYCTKEGLFYVMDYWGQGTSVTVSS VL: QIVLTQSPAIMSASPGEKVTMTCSATSSVSYMHWYQQKSGTSPKRWIYDTSKLASGVPVRFSGSGSGTSYSLTISSMEAEDAATYFCQQWRSDLPTFGAGTKLELKR
9.20

Request: Mutation 1-20 (antibody, V domains shown) VH: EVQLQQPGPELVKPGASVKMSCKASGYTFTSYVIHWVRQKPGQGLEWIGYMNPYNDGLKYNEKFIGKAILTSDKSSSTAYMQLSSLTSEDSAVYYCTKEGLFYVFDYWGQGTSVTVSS VL: QIVLTQSPAIMSASPGEKVTMTCSATSSISYMHWYQQKSGTSPKRWIYDSSKLASGVPVRFSGSGSGTSYSLTISSMEAEDAATYFCQYWRSDLPTFGAGTKLELKR
8.45

Where do the numbers come from? From patent US20210324054A1.
